assay: Metabolic stability in mouse liver microsomes assessed as intrinsic clearance measured upto 60 mins LC-MS analysis
Measured microsomal CLint at 1 h, listed per entry for reference.
Numeric only. Scale: µL/min/mg

Would you please look over these solved cases?
>>> testvalue("CCCCCCCCCCCc1ccc(/C=C2\\N=C(c3ccc[nH]3)C=C2Oc2ccccc2)[nH]1.Cl")
85.7
>>> testvalue("CCCCCc1cc(/C=C2\\N=C(c3ccc[nH]3)C=C2OCCC)[nH]c1C.Cl")
40.8
>>> testvalue("CCOC1=CC(c2ccc[nH]2)=N/C1=C\\NC1CCCCCC1.Cl")
14.4
>>> testvalue("CCCCCC1=C/C(=C\\c2[nH]c(-c3ccc[nH]3)cc2OC)N=C1C")
61.2

Using the record for "CCCCCc1cc(/C=C2\N=C(c3ccc[nH]3)C=C2Oc2ccccc2)[nH]c1C.Cl" , report its microsomal CLint at 1 h. 25.2

====

Measured IC50, listed per entry for reference.
test system: HepG2; experiment: Cytotoxicity against human HepG2 cells assessed as cell viability incubated for 72 hrs by MTT assay; format: toxicity, cell-based; details: hepg2
Numeric only. Scale: µM

Would you please look over these solved cases?
>>> testvalue("CCCOC1=CC(c2ccc[nH]2)=N/C1=C\\NC1CCCCCC1.Cl")
2.89
>>> testvalue("Clc1ccc(COC2=CC(c3ccc[nH]3)=N/C2=C\\NC2CCCCCC2)cc1")
8.48
>>> testvalue("CCCCCc1cc(/C=C2\\N=C(c3ccc[nH]3)C=C2Oc2ccc(OC(F)(F)F)cc2)[nH]c1C.Cl")
16.5

Using the record for "CCCCCCCCCCCc1ccc(/C=C2\N=C(c3ccc[nH]3)C=C2OCCC)[nH]1.Cl" , report its IC50. 18.9

Using the record for "C1=C(OCc2ccccc2)/C(=C/NC2CCCCCC2)N=C1c1ccc[nH]1.Cl" , report its IC50. 3.68

Using the record for "COC1=CC(c2ccc[nH]2)=N/C1=C\NCC(C)C" , report its IC50. 19.1

Using the record for "C1=C(OCc2ccccc2)/C(=C/NC23CC4CC(CC(C4)C2)C3)N=C1c1ccc[nH]1.Cl" , report its IC50. 1.1

Using the record for "CCCCCc1cc(/C=C2\N=C(c3ccc[nH]3)C=C2OC(C)C)[nH]c1C.Cl" , report its IC50. 3.48

Using the record for "CCCCCCCCCCCCN/C=C1\N=C(c2ccc[nH]2)C=C1OCC.Cl" , report its IC50. 4.35

Using the record for "Cl.Clc1ccc(COC2=CC(c3ccc[nH]3)=N/C2=C\NC23CC4CC(CC(C4)C2)C3)cc1" , report its IC50. 2.25

====

assay: in vitro; details: human
Description: Selectivity index, ratio of IC50 for cytotoxicity against human HepG2 cells assessed as cell viability to IC50 for antiplasmodial activity against asexual erythrocytic stage of Plasmodium falciparum D6 assessed as inhibition of parasitic growth incubated
Threshold check on selectivity ratio: at or above 100 gives true, strictly below gives false.

>>> category("CCCCCCCCCCCCN/C=C1\\N=C(c2ccc[nH]2)C=C1OCc1ccccc1.Cl")
"true"
>>> category("Clc1ccc(COC2=CC(c3ccc[nH]3)=N/C2=C\\NC2CCCCCC2)cc1")
"false"
>>> category("C1=C(Oc2ccccc2)/C(=C/NC23CC4CC(CC(C4)C2)C3)N=C1c1ccc[nH]1.Cl")
"true"
>>> category("Cl.FC(F)(F)Oc1ccc(COC2=CC(c3ccc[nH]3)=N/C2=C\\NC2CCCCCC2)cc1")
"true"

Here is another compound to look at.
# check: selectivity ratio of "COC1=CC(c2ccc[nH]2)=N/C1=C\NCC(C)C" is greater than or equal to 100 true

====

assay: in vitro; settings: human
Doc: threshold 900 (exclusive). Items with selectivity ratio beneath it return yes (1); others return no (0).

Would you please look over these solved cases?
>>> category("CCCCCc1cc(/C=C2\\N=C(c3ccc[nH]3)C=C2OCc2ccc(Cl)cc2)[nH]c1C.Cl")
"no (0)"
>>> category("CC(C)OC1=CC(c2ccc[nH]2)=N/C1=C\\NC1CCCCCC1.Cl")
"no (0)"
>>> category("Cl.FC(F)(F)Oc1ccc(COC2=CC(c3ccc[nH]3)=N/C2=C\\NC23CC4CC(CC(C4)C2)C3)cc1")
"no (0)"

Say whether its selectivity ratio is strictly beneath 900. Entry: "Cl.Clc1ccc(COC2=CC(c3ccc[nH]3)=N/C2=C\NC23CC4CC(CC(C4)C2)C3)cc1" yes (1)

Say whether its selectivity ratio is strictly beneath 900. Entry: "CCCCCc1cc(/C=C2\N=C(c3ccc[nH]3)C=C2OCC)[nH]c1C.Cl" no (0)

Say whether its selectivity ratio is strictly beneath 900. Entry: "CCCCCCCCCCCCN/C=C1\N=C(c2ccc[nH]2)C=C1OC" yes (1)

Say whether its selectivity ratio is strictly beneath 900. Entry: "CCCOC1=CC(c2ccc[nH]2)=N/C1=C\NCC(C)C.Cl" yes (1)

Say whether its selectivity ratio is strictly beneath 900. Entry: "CCCCCc1cc(/C=C2\N=C(c3ccc[nH]3)C=C2Oc2ccc(Cl)cc2)[nH]c1C.Cl" no (0)

====

assay: in vitro; conditions: human
Doc: threshold 2000 (exclusive). Items with selectivity ratio beneath it return Y; others return N.

Would you please look over these solved cases?
>>> category("CCCCCCCCCCCCN/C=C1\\N=C(c2ccc[nH]2)C=C1OCCC.Cl")
"Y"
>>> category("Cl.FC(F)(F)Oc1ccc(OC2=CC(c3ccc[nH]3)=N/C2=C\\NC23CC4CC(CC(C4)C2)C3)cc1")
"Y"
>>> category("CCCCCc1cc(/C=C2\\N=C(c3ccc[nH]3)C=C2Oc2ccc(OC(F)(F)F)cc2)[nH]c1C.Cl")
"Y"
>>> category("CCCCCCCCCCCc1ccc(/C=C2\\N=C(c3ccc[nH]3)C=C2Oc2ccccc2)[nH]1.Cl")
"N"
>>> category("CCOC1=CC(c2ccc[nH]2)=N/C1=C\\NC12CC3CC(CC(C3)C1)C2.Cl")
"N"

Say whether its selectivity ratio is strictly beneath 2000. Entry: "CCCCCCCCCCCc1ccc(/C=C2\N=C(c3ccc[nH]3)C=C2OCC)[nH]1.Cl" N

====

assay: MRTlast in ICR-CD1 mouse liver at 40 mg/kg, po; type: ADME, organism-based
readout: MRT last (h)
Numeric only. Scale: h

Using the record for "CCCCCc1cc(/C=C2\N=C(c3ccc[nH]3)C=C2Oc2ccccc2)[nH]c1C.Cl" , report its MRT last. 29.1

====

experiment: Cmax in ICR-CD1 mouse liver at 40 mg/kg, po; type: ADME, organism-based
readout: Cmax (ng/mL)
Numeric only. Scale: ng/mL

Using the record for "CCCCCc1cc(/C=C2\N=C(c3ccc[nH]3)C=C2Oc2ccccc2)[nH]c1C.Cl" , report its Cmax. 1130

====

test: AUClast in ICR-CD1 mouse plasma at 40 mg/kg, po; assay type: ADME, organism-based
readout: AUC(0-t) (ng·h/mL)
Numeric only. Scale: ng·h/mL

Using the record for "CCCCCc1cc(/C=C2\N=C(c3ccc[nH]3)C=C2Oc2ccccc2)[nH]c1C.Cl" , report its AUC(0-t). 5950

====

system: Plasmodium yoelii; assay: Antiplasmodial activity against asexual erythrocytic stage of Plasmodium yoelii infected in female CFI mouse model assessed as reduction in parasitemia at 25 mg/kg, po administered once daily for 4 days and measured on day 5 by Giemsa staining based microscopic analysis relative to control; type: functional; parameters: scale not given: the % may be the effect or the level left; settings: time 5 day
Threshold check on Activity: at or above 80% gives yes, strictly below gives no.

>>> category("CCCCCc1cc(/C=C2\\N=C(c3ccc[nH]3)C=C2OCCC)[nH]c1C.Cl")
"yes"

# check: Activity of "CCCCCc1cc(/C=C2\N=C(c3ccc[nH]3)C=C2OCC)[nH]c1C.Cl" is greater than or equal to 80% yes

# check: Activity of "Cl.Clc1ccc(OC2=CC(c3ccc[nH]3)=N/C2=C\NC23CC4CC(CC(C4)C2)C3)cc1" is greater than or equal to 80% no

# check: Activity of "CCCCCCCCCCCCN/C=C1\N=C(c2ccc[nH]2)C=C1OCCC.Cl" is greater than or equal to 80% no

====

tested on: Plasmodium falciparum; experiment: microbe, parasite or virus in culture; conditions: Dd2, 72 h
readout: pIC50
The meaning of pIC50 here: minus log10 of the concentration in molar units.

Would you please look over these solved cases?
>>> testvalue("CCCCCc1cc(/C=C2\\N=C(c3ccc[nH]3)C=C2Oc2ccc(OC(F)(F)F)cc2)[nH]c1C.Cl")
8.13
>>> testvalue("CC(C)OC1=CC(c2ccc[nH]2)=N/C1=C\\NC1CCCCCC1.Cl")
8.42
>>> testvalue("CCOC1=CC(c2ccc[nH]2)=N/C1=C\\NC12CC3CC(CC(C3)C1)C2.Cl")
9.11
>>> testvalue("CCOC1=CC(c2ccc[nH]2)=N/C1=C\\NC1CCCCCC1.Cl")
8.28
>>> testvalue("C1=C(OCc2ccccc2)/C(=C/NC2CCCCCC2)N=C1c1ccc[nH]1.Cl")
7.76

Using the record for "CC(C)OC1=CC(c2ccc[nH]2)=N/C1=C\NC12CC3CC(CC(C3)C1)C2.Cl" , report its pIC50. 8.70

Using the record for "CCCCCCCCCCCCN/C=C1\N=C(c2ccc[nH]2)C=C1OCCC.Cl" , report its pIC50. 7.35

Using the record for "C1=C(Oc2ccccc2)/C(=C/NC23CC4CC(CC(C4)C2)C3)N=C1c1ccc[nH]1.Cl" , report its pIC50. 7.66

The measured values listed here are drawn from ChEMBL document CHEMBL6083254.
